# Test system: HOP-62 NSCLC
# ASSAY REMARKS: NCI-60 one-dose screen, 48 h (100 = growth as untreated, 0 = no growth, -100 = all killed)
# TEST CONDITIONS: 10 µM unless noted
The panel holds about 83,000 compounds, 20% with a hit somewhere; the sample as a whole holds those more often. Calls of active or inactive are those of the source. The calls were made as follows: active = growth percent below 10; inactive = the rest.

| INPUT SMILES | growth |
| --- | --- |
| CC(C)c1nc(N(C)S(C)(=O)=O)nc(-c2ccc(F)cc2)c1/C=C/[C@@H](O)C[C@@H](O)CC(=O)O | 108% (inactive) |
| Oc1[nH]c2ccc(Cl)cc2c1/C=c1/ccc2c(c1)N=C(c1ccc(C(F)(F)F)cc1)N=2 | 71.5% (inactive) |
| Oc1ccccc1C=Nc1ccccc1N=Cc1ccccc1O.[Cu+2] | 66% (inactive) |
| Clc1ccc(-c2nc(-c3cccs3)no2)c(Cl)c1 | 84.9% (inactive) |
| CCC1=C(c2ccc(OC)cc2)C(C)(C)Oc2c1ccc(O)c2CN1CCCC1 | 18.7% (inactive) |

###

Parameter: growth. Scope: all listed entries.
# System: OVCAR-3 ovarian
# ASSAY REMARKS: NCI-60 one-dose screen, 48 h (100 = growth as untreated, 0 = no growth, -100 = all killed)
# TEST CONDITIONS: 10 µM unless noted
The panel holds about 83,000 compounds, 20% with a hit somewhere; the sample as a whole holds those more often.

| COMPOUND | TEST SYSTEM | growth [%] |
| --- | --- | --- |
| COc1ccc(/C(=C2\O[C@@H]([C@H](O)CO)[C@H]3OC(C)(C)O[C@@H]23)c2cc(OC)c(OC)c(OC)c2)cc1O | OVCAR-3 ovarian | 97.4 |
| C/C(=C\CCc1ccsc1)CC/C=C(\C)CCCN1CCC(CO)CC1 | OVCAR-3 ovarian | 48.6 |
| CCC(CC)NCCCCCNc1cc(OC)cc2cccnc12 | OVCAR-3 ovarian | 83.3 |
| CC1CC(C)/C(=N/NC(N)=O)C(C(O)CC2CCC(=O)NC2=O)C1 (stereo not drawn) | OVCAR-3 ovarian | 53.6 |
| C=Cc1nn2c(CCC(=O)c3nc4ccccc4[nH]3)nnc2s1 | OVCAR-3 ovarian | 107 |
| Cc1cc([N+](=O)[O-])c(C)cc1C(=O)O | OVCAR-3 ovarian | 106 |
| COC(=O)CCC1=C(C)C(C)=N/C1=C\c1[nH]c(-c2ccc[nH]2)cc1OC | OVCAR-3 ovarian | -34.5 |
| CN(C)c1ccc(/C=C(\C#N)c2nc3ccccc3c(=O)[nH]2)cc1 | OVCAR-3 ovarian | 114 |
| Nc1ccc2c(c1)/C(=N/O)c1cc([N+](=O)[O-])ccc1-2 | OVCAR-3 ovarian | 63.8 |
| OC(c1cc(C(F)(F)F)nc2c(C(F)(F)F)cccc12)C1CCCCN1 (stereo not drawn) | OVCAR-3 ovarian | 73.7 |
| COc1ccc(C2CC(c3cccc(Nc4ccnc5cc(Cl)ccc45)c3)=NN2C=O)cc1 (stereo not drawn) | OVCAR-3 ovarian | -22.7 |
| Cc1ccccc1-c1cc(Cc2ccccc2O)c(=O)[nH]n1 | OVCAR-3 ovarian | 100 |
| O=C(C(Br)Br)C(Br)C(Br)c1ccccc1 (stereo not drawn) | OVCAR-3 ovarian | 1.96 |
| O=C(Nc1ccc(Cl)cc1Cl)Nc1ccc(-c2cccnc2)cc1N1CCC(CO)CC1 | OVCAR-3 ovarian | 24.9 |
| CCCCC1Nc2nc(SC)n(C)c(=O)c2CN(Cc2ccccc2)C1=O (stereo not drawn) | OVCAR-3 ovarian | 113 |
| COc1cc2c(cc1OC)C1CCN3C(=O)CCC3N1CC2 (stereo not drawn) | OVCAR-3 ovarian | 113 |
| CCCCCCCCCCSc1ncnc2nc[nH]c12 | OVCAR-3 ovarian | 71.1 |
| Clc1ncn[nH]1 | OVCAR-3 ovarian | 105 |
| C[N+]1(CCc2ccccc2)CCC(CCC2CC[N+](C)(CCc3ccccc3)CC2)CC1 (stereo not drawn) | OVCAR-3 ovarian | 107 |
| COc1ccc2[nH]c(-c3ccccc3)cc2c1 | OVCAR-3 ovarian | 101 |
| Cc1nn(-c2ccc(Cl)cc2)c2nc3c(nc12)C(=O)c1ccccc1-3 | OVCAR-3 ovarian | 62.8 |
| CC(C)[C@H]1CC[C@H]2[C@@H](CC[C@H]3[C@](C)(CN)CCC[C@]23C)C1 | OVCAR-3 ovarian | 22.7 |
| COc1ccc(COC(C)=O)cc1 | OVCAR-3 ovarian | 110 |

###

# Tested on: MDA-MB-231 breast
# ASSAY REMARKS: NCI-60 one-dose screen, 48 h
# TEST CONDITIONS: 10 µM unless noted
This is part of a sample that, as a whole, favours compounds with a hit. Of some 83,000 tested, about 20% had one in any assay. The source made the active and inactive calls. Rule for the calls: active = growth percent below 10; inactive = the rest.
Possible outcomes: class 1 for active, class 0 for inactive

| COMPOUND | TEST SYSTEM | ASSIGNED CATEGORY |
| --- | --- | --- |
| O=C(Nc1ccncc1)C(=O)c1cn(S(=O)(=O)c2cccc(F)c2)c2ccccc12 | MDA-MB-231 breast | class 0 |
| CCCn1cnc2c1c(=O)n(CCCCC(C)=O)c(=O)n2C | MDA-MB-231 breast | class 0 |
| Clc1ccccc1[C@@H]1C[C@@H]2Cc3cc(Br)c4ccccc4c3N1O2 | MDA-MB-231 breast | class 0 |
| ClC1C2CC(c3ccccc32)C1Cl (centres undefined) | MDA-MB-231 breast | class 0 |
| CCN(CC)CCOc1ccc(C2=C(c3ccccc3)CCc3cc(OC)ccc32)cc1 | MDA-MB-231 breast | class 1 |
| COc1ccc2c3c(c(OCCCN(C)C)nc2c1)-c1ccc(Cl)cc1C3=O | MDA-MB-231 breast | class 1 |
| Cc1cc(NC(=O)Nc2cc(Cl)ccc2C)no1 | MDA-MB-231 breast | class 0 |
| COc1ccc2[nH]c(-c3ccccc3)cc2c1 | MDA-MB-231 breast | class 0 |
| COc1ccc(C(=O)Nc2nc(-c3ccc(Cl)cc3)cs2)cc1 | MDA-MB-231 breast | class 0 |
| O=C1c2nsnc2C(=O)c2c(F)c(F)c(F)c(F)c21 | MDA-MB-231 breast | class 1 |
| CCC[C@H](N[C@@H](C)C(=O)N1[C@H](C(=O)O)C[C@@H]2CCCC[C@@H]21)C(=O)OCC | MDA-MB-231 breast | class 0 |
| O=C(N1CCC(CN=c2cc3n(-c4ccc(Cl)cc4)c4ccccc4nc-3cc2Nc2ccc(Cl)cc2)CC1)N1CC1 | MDA-MB-231 breast | class 1 |
| CCCc1cc(=O)n2c(C(=O)Nc3ccccc3OC)c(C(=O)Nc3ccc(F)cc3)sc2n1 | MDA-MB-231 breast | class 0 |
| O=C(CCc1nnc(Cn2cncn2)o1)c1nc2ccccc2[nH]1 | MDA-MB-231 breast | class 0 |

###

Listed next: entries and their corresponding growth.
# Tested on: M14 melanoma
# ASSAY REMARKS: NCI-60 one-dose screen, 48 h (100 = growth as untreated, 0 = no growth, -100 = all killed)
# TEST CONDITIONS: 10 µM unless noted
# Method: Growth inhibition of the M14 human tumor cell line is measured as a screen for anti-cancer activity. Cells are grown in 96 well plates and exposed to the test compound for 48 hours. Compounds are tested at a single concentration, which is 10^-5 M for most compounds. The reported endpoint is percent growth (GI% or GIPRCNT), where numbers from 0 - 100% represent growth inhibition, and numbers from -100% - 0 represent cell death. For example, a value of 40 represents 60% growth inhibition. […]
About 83,000 compounds went through this panel and 20% of them were active in at least one assay; those are over-represented in the sample as a whole.
MEASURED PROPERTY: growth (%)

| COMPOUND | TEST SYSTEM | MEASURED PROPERTY | OBSERVED RESULT |
| --- | --- | --- | --- |
| Fc1ccc(-c2nnc(/C=C/c3cn(-c4ccccc4)nc3-c3ccccc3)o2)cc1 | M14 melanoma | growth | 93.1 |
| O=[N+]([O-])c1ccc2c(c1)S(=O)c1cc([N+](=O)[O-])ccc1N2 | M14 melanoma | growth | 91.7 |
| O=[N+]([O-])c1ccc(Oc2cccc(C(F)(F)F)c2)c([N+](=O)[O-])c1 | M14 melanoma | growth | 9.6 |
| COc1ccc(C2CC(c3ccc(OC)c(OC)c3)=NN2C(=O)c2cc(OC)c(OC)c(OC)c2)cc1 (stereo not given) | M14 melanoma | growth | -11.8 |
| CC(C)c1nc(N(C)S(C)(=O)=O)nc(-c2ccc(F)cc2)c1/C=C/[C@@H](O)C[C@@H](O)CC(=O)O | M14 melanoma | growth | 104 |
| O=C(CSc1nnc(Nc2ccccc2)s1)NCCc1ccc(F)cc1 | M14 melanoma | growth | 103 |
| COc1cc(OC)c2cc(C(=O)O)c(=O)oc2c1 | M14 melanoma | growth | 103 |
| O=C(Oc1ccc[nH]c1=O)c1cccc(Cl)c1 | M14 melanoma | growth | 95.8 |
| CSc1nc2c(c(=O)n1C)C(c1ccccc1)C1=C(N2)/C(=C/c2ccccc2)CCC1 (stereo not given) | M14 melanoma | growth | 65.9 |
| COC1=CC(c2ccc[nH]2)=N/C1=C\c1[nH]c(C)c(C(=O)CCC(=O)Oc2ccc3c(c2)CCC2C3CC[C@]3(C)C(=O)CC[C@@H]23)c1C (stereo not given in full) | M14 melanoma | growth | 104 |

Hey, just so you know, these numbers are from PubChem BioAssay (NCI).
